experiment_summary: Human liver microsomal stability
Format: in vitro ADME
experimental_parameters: human, microsomes
Experimental: The data collected were analyzed to calculate a half-life (t1/2, min) for tested peptides at a final concentration of 1 μM. Briefly, 5 μL of stock solution of tested peptide (10 mM) were diluted in 495 μL of 1:1 Methanol/Water (final concentration of 100 μM, 50% MeOH). Then, 50 μL of this intermediate solution were diluted in 450 μL of 100 mM potassium phosphate buffer to a concentration of 10 μM (working solution, 5% MeOH). […]
result_type: half-life
Write your answer as a measured quantity: the number, then the unit.

Form field half-life, entry CSCC[C@@H]1NC(=O)[C@H](C)NC(=O)[C@H](Cc2ccccc2)NC(=O)[C@H](Cc2ccccc2)NC(=O)[C@@H]2CCCN2C(=O)[C@H](Cc2c[nH]c3ccccc23)NC(=O)[C@H](CCSC)NC(=O)[C@H](CCCCN)NC(=O)[C@H](CCCNC(=N)N)NC(=O)[C@H](Cc2ccccc2)NC(=O)[C@H](C)NC(=O)[C@H](CCC(N)=O)NC(=O)[C@H](Cc2ccccc2)NC(=O)[C@@H](C)NC(=O)[C@H](CCCNC(=N)N)NCCNC(=O)CNC1=O : 11.1 min

====

test_system: human FOXP3 (FOXP3-6His) (Homo sapiens)
Construct: 6xHis (C); made in house; host or cells: E. coli BL21 (DE3)
Sequence (Q9BZS1 1-431): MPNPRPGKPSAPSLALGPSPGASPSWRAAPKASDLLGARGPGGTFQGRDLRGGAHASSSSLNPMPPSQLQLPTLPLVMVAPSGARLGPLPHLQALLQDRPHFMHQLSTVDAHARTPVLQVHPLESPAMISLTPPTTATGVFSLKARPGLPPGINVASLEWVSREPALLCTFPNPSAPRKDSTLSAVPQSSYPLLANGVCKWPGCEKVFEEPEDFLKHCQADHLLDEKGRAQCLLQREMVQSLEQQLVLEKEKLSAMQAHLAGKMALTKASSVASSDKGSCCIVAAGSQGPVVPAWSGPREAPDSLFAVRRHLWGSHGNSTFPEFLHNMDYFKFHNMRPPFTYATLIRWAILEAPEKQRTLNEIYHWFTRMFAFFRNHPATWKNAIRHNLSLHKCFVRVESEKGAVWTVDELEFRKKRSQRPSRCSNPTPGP
experiment_summary: Peptide binding to FOXP3 by surface plasmon resonance (SPR)
experimental_parameters: peptides 1-20 μM; ratio to p60 (SEQ ID NO: 1)
Where no end group is shown, it is not given here. [ ]: non-standard residue; d: D form.
Provide the recorded Binding to Foxp3 Ratio binding Peptide/p60 (fold change) for the entries that follow.
# number only, unit fold change dropped from output

Query 8 (RYFQSFRKMWPFFAM) [compound 8] yields Binding to Foxp3 Ratio binding Peptide/p60 (fold change) of 1.4

The substance identified as 38 (RDFQSFRKMWAFFA[dM]-NH2; not fully specified (N-terminus)) [compound 38] registered its Binding to Foxp3 Ratio binding Peptide/p60 (fold change) at 1.1

Value of Binding to Foxp3 Ratio binding Peptide/p60 (fold change) reported for the substance 33 (RDFQSFRKMWVFFAM) [compound 33] is 1.3

Entry 32 (RDFQSFRKMWNFFAM) [compound 32] ; Binding to Foxp3 Ratio binding Peptide/p60 (fold change) = 1.4

Sure, the documented Binding to Foxp3 Ratio binding Peptide/p60 (fold change) for 44 (RAFQSFRKMWAFFAM-NH2; not fully specified (N-terminus)) [compound 44] is 3.0

Sample 19 (RDFQAFRKMWPFFAM) [compound 19] ; Binding to Foxp3 Ratio binding Peptide/p60 (fold change) observed: 1.1

So, 24 (RDFQYFRKMWPFFAM) [compound 24] ? Its Binding to Foxp3 Ratio binding Peptide/p60 (fold change) was 4.6

What the record says about 25 (RDFQKFRKMWPFFAM) [compound 25] : Binding to Foxp3 Ratio binding Peptide/p60 (fold change) is 4.0

Reported Binding to Foxp3 Ratio binding Peptide/p60 (fold change) ( 43 (R[dA]FQ[dA]FRKMWPFFAM-NH2; not fully specified (N-terminus)) [compound 43] ) = 4.9

Sure, the documented Binding to Foxp3 Ratio binding Peptide/p60 (fold change) for 21 (RDFQNFRKMWPFFAM) [compound 21] is 3.2

====

experiment_summary: Mouse liver microsomal stability
Format: in vitro ADME
experimental_parameters: mouse liver microsomes, 60 min; read-out: % Remaining after 60 min
Where a SMILES comes first, the peptide text is derived from it. [ ]: non-standard residue; d: D form.
result_type: remaining at 1 h, 1 μM
Answer with the figure and its unit, nothing else.

// recorded remaining at 1 h, 1 μM for CSCC[C@H](NC(=O)[C@H](C)NC(=O)[C@H](Cc1ccccc1)NC(=O)[C@H](Cc1ccccc1)NC(=O)[C@@H]1CCCN1C(=O)[C@H](Cc1c[nH]c2ccccc12)NC(=O)[C@H](CCSC)NC(=O)[C@H](CCCCN)NC(=O)[C@H](CCCNC(=N)N)NC(=O)[C@H](Cc1ccccc1)NC(=O)[C@H](CO)NC(=O)[C@H](CCC(N)=O)NC(=O)[C@H](Cc1ccccc1)NC(=O)[C@@H](CC(=O)O)NC(=O)[C@@H](N)CCCNC(=N)N)C(=O)O [compound 3] (H-R[dD]FQSFRKMWPFFAM-OH) : 0%

Quick note, remaining at 1 h, 1 μM for CSCC[C@@H]1NC(=O)[C@H](C)NC(=O)[C@H](Cc2ccccc2)NC(=O)[C@H](Cc2ccccc2)NC(=O)[C@@H]2CCCN2C(=O)[C@H](Cc2c[nH]c3ccccc23)NC(=O)[C@H](CCSC)NC(=O)[C@H](CCCCN)NC(=O)[C@H](CCCNC(=N)N)NC(=O)[C@H](Cc2ccccc2)NC(=O)[C@H](C)NC(=O)[C@H](CCC(N)=O)NC(=O)[C@H](Cc2ccccc2)NC(=O)[C@H](C)NC(=O)[C@H](CCCNC(=N)N)NC1=O [compound 50] (cyclo(RAFQAFRKMWPFFAM)) landed at 0%

====

experiment_summary: Mouse liver microsomal stability
Assay type: in vitro ADME
experimental_parameters: mouse liver microsomes, peptide 1 μM
Where a SMILES comes first, the peptide text is derived from it. [ ]: non-standard residue; d: D form.
Please respond with class 1 when measured half-life is strictly beneath 50 min, and with class 0 in all other cases.

Qu. A record lists CSCC[C@@H]1NC(=O)[C@H](C)NC(=O)[C@H](Cc2ccccc2)NC(=O)[C@H](Cc2ccccc2)NC(=O)[C@@H]2CCCN2C(=O)[C@H](Cc2c[nH]c3ccccc23)NC(=O)[C@H](CCSC)NC(=O)[C@H](CCCCN)NC(=O)[C@H](CCCNC(=N)N)NC(=O)[C@H](Cc2ccccc2)NC(=O)[C@H](C)NC(=O)[C@H](CCC(N)=O)NC(=O)[C@H](Cc2ccccc2)NC(=O)[C@@H](C)NC(=O)[C@H](CCCNC(=N)N)NCCOCCNC1=O . Is its half-life below 50 min?
Ans. class 1

Qu. Would you kindly verify if half-life of CSCC[C@@H]1NC(=O)[C@H](C)NC(=O)[C@H](Cc2ccccc2)NC(=O)[C@H](Cc2ccccc2)NC(=O)[C@@H]2CCCN2C(=O)[C@H](Cc2c[nH]c3ccccc23)NC(=O)[C@H](CCSC)NC(=O)[C@H](CCCCN)NC(=O)[C@H](CCCNC(=N)N)NC(=O)[C@H](Cc2ccccc2)NC(=O)[C@H](C)NC(=O)[C@H](CCC(N)=O)NC(=O)[C@H](Cc2ccccc2)NC(=O)[C@@H](C)NC(=O)[C@H](CCCNC(=N)N)NCCCNC1=O is strictly less than 50 min?
Ans. class 1

Qu. Strictly below 50 min: is that where half-life of CSCC[C@@H]1NC(=O)[C@H](C)NC(=O)[C@H](Cc2ccccc2)NC(=O)[C@H](Cc2ccccc2)NC(=O)[C@@H]2CCCN2C(=O)[C@H](Cc2c[nH]c3ccccc23)NC(=O)[C@H](CCSC)NC(=O)[C@H](CCCCN)NC(=O)[C@H](CCCNC(=N)N)NC(=O)[C@H](Cc2ccccc2)NC(=O)[C@H](C)NC(=O)[C@H](CCC(N)=O)NC(=O)[C@H](Cc2ccccc2)NC(=O)[C@@H](C)NC(=O)[C@H](CCCNC(=N)N)NC1=O [compound 51] (cyclo(R[dA]FQAFRKMWPFFAM)) sits?
Ans. class 0

Qu. Criterion: half-life strictly below 50 min. Is it met by CSCC[C@@H]1NC(=O)[C@H](C)NC(=O)[C@H](Cc2ccccc2)NC(=O)[C@H](Cc2ccccc2)NC(=O)[C@@H]2CCCN2C(=O)[C@H](Cc2c[nH]c3ccccc23)NC(=O)[C@H](CCSC)NC(=O)[C@H](CCCCN)NC(=O)[C@H](CCCNC(=N)N)NC(=O)[C@H](Cc2ccccc2)NC(=O)[C@H](C)NC(=O)[C@H](CCC(N)=O)NC(=O)[C@H](Cc2ccccc2)NC(=O)[C@@H](C)NC(=O)[C@H](CCCNC(=N)N)NCCNC(=O)CNC1=O ?
Ans. class 1

Qu. # check: half-life < 50 min for CSCC[C@H](NC(=O)[C@H](C)NC(=O)[C@H](Cc1ccccc1)NC(=O)[C@H](Cc1ccccc1)NC(=O)[C@@H]1CCCN1C(=O)[C@H](Cc1c[nH]c2ccccc12)NC(=O)[C@H](CCSC)NC(=O)[C@H](CCCCN)NC(=O)[C@H](CCCNC(=N)N)NC(=O)[C@H](Cc1ccccc1)NC(=O)[C@H](CO)NC(=O)[C@H](CCC(N)=O)NC(=O)[C@H](Cc1ccccc1)NC(=O)[C@@H](CC(=O)O)NC(=O)[C@@H](N)CCCNC(=N)N)C(=O)O [compound 3] (H-R[dD]FQSFRKMWPFFAM-OH)
Ans. class 1

Qu. Report whether reported half-life is lower than 50 min (strictly) for CSCC[C@@H]1NC(=O)[C@H](C)NC(=O)[C@H](Cc2ccccc2)NC(=O)[C@H](Cc2ccccc2)NC(=O)[C@@H]2CCCN2C(=O)[C@H](Cc2c[nH]c3ccccc23)NC(=O)[C@H](CCSC)NC(=O)[C@H](CCCCN)NC(=O)[C@H](CCCNC(=N)N)NC(=O)[C@H](Cc2ccccc2)NC(=O)[C@H](C)NC(=O)[C@H](CCC(N)=O)NC(=O)[C@H](Cc2ccccc2)NC(=O)[C@H](C)NC(=O)[C@H](CCCNC(=N)N)NC1=O [compound 50] (cyclo(RAFQAFRKMWPFFAM))
Ans. class 1
